Data origin, for the record: paper PMC12292835

- tested target: T1, FITC-labeled salmon calcitonin (sCT) fragment(22–32) (salmon, fluorescein isothiocyanate (FITC) label, position not stated)
- T1 construct: salmon calcitonin, residues 22-32 (11 amino acids); numbers count on: the mature 32-residue hormone; probably FITC at the N-terminus and a C-terminal amide, neither stated for this peptide; also called FITC-sCT(22–32); sCT(22–32); source: synthetic peptide (custom-synthesized, Genscript, HPLC-purified)
- assay details: fluorescence polarisation; saturation binding format; 10 nM FITC-labeled peptide probe, purified receptor ECD at rising concentrations; 1 h at room temperature; anisotropy; mean pKD of at least three independent experiments
- condition parameters: both partners purified
In this section, each of the binders is paired with its reported pKD.
Give a plain numeric answer without units written out.

Look over these answered cases.
# binder, pKD
measured = [
    ("amylin receptor 1 extracellular domain with calcitonin receptor D97E (hRAMP1.24–111-(GSA)3-hCTR.34–141.D97E-H6) (receptor, N-glycosylated (sites not given)) TTACQEANYGALLRELCLTQFQVDMEAVGETLWCDWGRTIRSYRELADCTWHMAEKLGCFWPNAEVDRFFLAVHGRYFRSCPISGRAVGSAGSAGSAIEPKPFLYVVGRKKMMDAQYKCYDRMQQLPAYQGEGPYCNRTWDGWLCWDDTPAGVLSYQFCPEYFPDFDPSEKVTKYCDEKGVWFKHPENNRTWSNYTMCNAFTPEK", 6.79),
    ("amylin receptor 1 extracellular domain, wild type (hRAMP1.24–111-(GSA)3-hCTR.34–141-H6) (receptor, N-glycosylated (sites not given)) TTACQEANYGALLRELCLTQFQVDMEAVGETLWCDWGRTIRSYRELADCTWHMAEKLGCFWPNAEVDRFFLAVHGRYFRSCPISGRAVGSAGSAGSAIEPKPFLYVVGRKKMMDAQYKCYDRMQQLPAYQGEGPYCNRTWDGWLCWDDTPAGVLSYQFCPDYFPDFDPSEKVTKYCDEKGVWFKHPENNRTWSNYTMCNAFTPEK", 7.09),
]

From here, focus on the item given below.
// recorded pKD for amylin receptor 1 extracellular domain with calcitonin receptor E123D (hRAMP1.24–111-(GSA)3-hCTR.34–141.E123D-H6) (receptor, N-glycosylated (sites not given)) TTACQEANYGALLRELCLTQFQVDMEAVGETLWCDWGRTIRSYRELADCTWHMAEKLGCFWPNAEVDRFFLAVHGRYFRSCPISGRAVGSAGSAGSAIEPKPFLYVVGRKKMMDAQYKCYDRMQQLPAYQGEGPYCNRTWDGWLCWDDTPAGVLSYQFCPDYFPDFDPSEKVTKYCDEKGVWFKHPDNNRTWSNYTMCNAFTPEK : 7.28
